Test system: A549 human pulmonary cancer cells
Assay: MTT test, proliferation of A549
Format: cell-based
Settings: Homo sapiens; A549, 10^-8 M, 72 h, control = 100%; read-out: level of proliferation
measurement.name: activity at 0.01 µM

Here are 4 molecules together with their reported answers.
smiles.code	endpoint.result
C/C(=C/c1ccc2c(c1)C(C)(C)CCS2(=O)=O)c1ccc(C(=O)O)cc1	114%
C/C(=C\c1ccc2c(c1)C(C)(C)CCS2(=O)=O)c1ccc(C(=O)O)cc1	105%
C/C(=C/c1ccc2c(c1)C(C)(C)CCS2(=O)=O)c1ccc(-c2nnn[nH]2)cc1	96.2%
C/C(=C\c1ccc2c(c1)C(C)(C)CCS2)c1ccc(C(=O)O)cc1	92.1%

Now for a further molecule.
Name the reported activity at 0.01 µM value associated with the molecule C/C(=C/c1ccc2c(c1)C(C)(C)CCC2(C)C)c1ccc(C(=O)O)cn1
126%
